Target: human TLR8 (Homo sapiens, UniProt Q9NR97)
Sequence (Q9NR97 27-1041): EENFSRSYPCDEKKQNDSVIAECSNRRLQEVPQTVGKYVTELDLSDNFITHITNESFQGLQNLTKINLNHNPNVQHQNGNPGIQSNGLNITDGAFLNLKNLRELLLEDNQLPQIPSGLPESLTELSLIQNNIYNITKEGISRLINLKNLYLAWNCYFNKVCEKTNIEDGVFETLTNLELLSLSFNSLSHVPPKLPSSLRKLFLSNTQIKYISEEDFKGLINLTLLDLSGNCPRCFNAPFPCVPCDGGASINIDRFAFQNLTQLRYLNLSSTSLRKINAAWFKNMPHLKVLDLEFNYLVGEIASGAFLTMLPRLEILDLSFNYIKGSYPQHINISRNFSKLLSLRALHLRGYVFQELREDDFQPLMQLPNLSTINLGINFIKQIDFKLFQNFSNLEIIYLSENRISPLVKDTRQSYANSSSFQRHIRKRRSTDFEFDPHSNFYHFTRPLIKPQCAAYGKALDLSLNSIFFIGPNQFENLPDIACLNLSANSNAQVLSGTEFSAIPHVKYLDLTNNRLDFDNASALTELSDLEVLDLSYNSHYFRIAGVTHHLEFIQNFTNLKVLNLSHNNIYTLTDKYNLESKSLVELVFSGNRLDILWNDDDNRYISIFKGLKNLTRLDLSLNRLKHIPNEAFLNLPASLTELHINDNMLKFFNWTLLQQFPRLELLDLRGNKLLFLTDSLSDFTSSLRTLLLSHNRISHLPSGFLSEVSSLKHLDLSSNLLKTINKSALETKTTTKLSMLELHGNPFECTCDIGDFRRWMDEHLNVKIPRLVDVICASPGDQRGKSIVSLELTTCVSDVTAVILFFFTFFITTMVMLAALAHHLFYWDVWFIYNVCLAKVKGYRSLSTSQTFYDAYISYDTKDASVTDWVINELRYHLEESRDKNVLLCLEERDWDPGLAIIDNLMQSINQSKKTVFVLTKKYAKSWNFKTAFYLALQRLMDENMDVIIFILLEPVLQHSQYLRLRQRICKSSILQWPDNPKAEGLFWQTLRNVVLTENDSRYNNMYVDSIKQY
Experiment: TLR8 inhibition reporter assay (HEK-Blue cells, SEAP reporter, R848 stimulation)
Conditions: HEK-Blue cells overexpressing human TLR8, SEAP reporter, R848 15.9 μM
ASSAY_ENDPOINT: IC50

Example entries begin here.
MOLECULE | IC50
CCc1c(-c2ccnc3[nH]cc(C(C)C)c23)[nH]c2ccc(C3CCNCC3)cc12 [Example 221] | 1000 to 50000 nM
CNCCN1CCC(c2ccc3[nH]c(-c4ccnc5[nH]ncc45)c(C(C)C)c3c2)C(F)C1 (stereo not drawn) [Example 677] | < 100 nM

Look at this molecule and give its reported IC50. Cc1cnc2[nH]ncc2c1-c1[nH]c2ccc(C3CCNCC3)cc2c1C(C)C [Example 46]
< 100 nM

====

Target: human TLR9 (Homo sapiens, UniProt Q9NR96)
Sequence (Q9NR96 26-1032): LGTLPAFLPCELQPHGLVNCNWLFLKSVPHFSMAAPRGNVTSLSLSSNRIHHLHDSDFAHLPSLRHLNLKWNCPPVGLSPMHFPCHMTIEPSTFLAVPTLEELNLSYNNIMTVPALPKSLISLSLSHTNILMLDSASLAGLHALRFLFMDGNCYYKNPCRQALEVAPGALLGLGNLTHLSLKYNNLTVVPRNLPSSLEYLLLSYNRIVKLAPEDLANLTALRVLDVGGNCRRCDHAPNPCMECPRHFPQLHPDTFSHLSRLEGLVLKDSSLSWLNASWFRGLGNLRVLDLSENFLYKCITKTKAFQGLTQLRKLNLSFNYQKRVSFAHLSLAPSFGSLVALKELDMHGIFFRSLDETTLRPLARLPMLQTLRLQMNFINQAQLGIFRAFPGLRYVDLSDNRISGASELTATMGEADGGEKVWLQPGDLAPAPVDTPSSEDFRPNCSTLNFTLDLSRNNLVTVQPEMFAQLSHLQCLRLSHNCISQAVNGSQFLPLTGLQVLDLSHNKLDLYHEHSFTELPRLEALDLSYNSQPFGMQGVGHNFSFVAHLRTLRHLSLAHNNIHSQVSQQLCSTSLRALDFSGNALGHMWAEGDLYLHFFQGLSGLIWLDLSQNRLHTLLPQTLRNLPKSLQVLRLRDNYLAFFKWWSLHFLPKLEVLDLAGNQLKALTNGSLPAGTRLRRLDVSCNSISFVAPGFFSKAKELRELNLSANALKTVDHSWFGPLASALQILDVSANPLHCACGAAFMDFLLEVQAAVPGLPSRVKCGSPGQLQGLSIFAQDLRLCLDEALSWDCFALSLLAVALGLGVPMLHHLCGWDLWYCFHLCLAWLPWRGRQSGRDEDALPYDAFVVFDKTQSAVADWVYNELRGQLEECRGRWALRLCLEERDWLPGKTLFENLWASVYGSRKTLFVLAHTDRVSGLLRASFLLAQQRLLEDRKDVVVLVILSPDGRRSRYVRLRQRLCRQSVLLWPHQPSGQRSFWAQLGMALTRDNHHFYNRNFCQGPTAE
Assay: TLR9 inhibition reporter assay (HEK-Blue cells, SEAP reporter, ODN2006 stimulation)
Settings: HEK-Blue cells overexpressing human TLR9, SEAP reporter, ODN2006 5 nM
pIC50: −log10 of the molar value.
ASSAY_ENDPOINT: pIC50

RECORD_SMILES | VALUE
CC(C)c1c(-c2cc(CO)c3nnnn3c2)[nH]c2ccc(C3CCN(C4COC4)CC3)cc12 | 4.30 to 6.00
Cc1ncc(CN2CCC(c3ccc4[nH]c(-c5ccnc6[nH]ncc56)c(C(C)C)c4c3)CC2)[nH]1 | 6.00 to 7.00
CC(C)c1c(-c2cnc3cn[nH]c3c2)[nH]c2ccc(C3CCN(C(=O)CN(C)C)CC3)cc12 | 4.30 to 6.00
CC(C)c1c(-c2ccnc3[nH]ncc23)[nH]c2ccc(C3CCN(CCN4CCCCCC4)CC3)cc12 | 6.00 to 7.00
Cc1cc2cc(-c3[nH]c4ccc(C5CCN(CC(=O)N(C)C)CC5)cc4c3C(C)C)ccn2n1 | 4.30 to 6.00

Look at this compound and give its reported pIC50. CN(C)C(=O)CN1CCC(c2ccc3[nH]c(-c4ccn5ccnc5c4)c(CC(F)F)c3c2)CC1
4.30 to 6.00

Then what about the compound Cc1nc2cc(-c3[nH]c4ccc(C5CCN(C(=O)CN(C)C)CC5)cc4c3C(C)C)cc(C)c2o1 ?
4.30 to 6.00

Then what about the compound CNC(=O)CN1CCC(c2ccc3[nH]c(-c4cc(C)nc5ccccc45)c(C(C)C)c3c2)CC1 ?
4.30 to 6.00

Then what about the compound Cc1cc(-c2[nH]c3ccc(C4CCN(C(=O)CN(C)C)CC4)cc3c2C(C)C)cc2nccnc12 ?
4.30 to 6.00

Then what about the compound CC(C)c1c(-c2ccc3ncnn3n2)[nH]c2ccc(C3CCN(CC(=O)N(C)C)CC3)cc12 ?
4.30 to 6.00

Then what about the compound CC(C)c1c(-c2ccc3nccn3c2)[nH]c2ccc(C3CCN(C(=O)[C@H]4CCCNC4)CC3)cc12 ?
4.30 to 6.00

====

Biological target: UniProtKB Q9NR96
Assay: TLR9 inhibition reporter assay (HEK-Blue cells, SEAP reporter, ODN2006 stimulation)
Conditions: HEK-Blue cells overexpressing human TLR9, SEAP reporter, ODN2006 5 nM
ASSAY_ENDPOINT: IC50

Example entries begin here.
MOLECULE | IC50
Cc1c(-c2[nH]c3ccc(C4CCN(CCS(C)(=O)=O)CC4)cc3c2C(C)C)cn2nnnc2c1C [Example 786] | 1000 to 50000 nM
Cc1cc(-c2[nH]c3ccc(C4CCN(C(=O)CCN(C)C5CC5)CC4)cc3c2C(C)C)cn2nnnc12 [Example 623] | 1000 to 50000 nM
Cc1cc(-c2[nH]c3ccc(C4CCN(C(=O)CN(C)C)CC4)cc3c2C(C)C)cc2cnnn12 [Example 488] | 1000 to 50000 nM
CC(C)c1c(-c2ccc3occc3c2)[nH]c2ccc(C3CCNCC3)cc12 [Example 67] | 1000 to 50000 nM
CC(C)c1c(-c2ccc3ncsc3n2)[nH]c2ccc(C3CCNCC3)cc12 [Example 209] | 1000 to 50000 nM

Look at this molecule and give its reported IC50. CCc1c(-c2ccnc3[nH]ccc23)[nH]c2ccc(C3CCN(C4CCN(C(C)C)CC4)CC3)cc12 [Example 850]
100 to 1000 nM

Then what about the molecule Fc1cc(-c2[nH]c3ccc(C4CCNCC4)cc3c2CC(F)F)cn2ccnc12 [Example 131] ?
100 to 1000 nM

Then what about the molecule CNCC(=O)N1CCC(c2ccc3[nH]c(-c4cc(OC)n5ncnc5c4)c(C(C)C)c3c2)CC1 [Example 553] ?
100 to 1000 nM

====

Biological target: human TLR9 (Homo sapiens)
Experiment: TLR9 inhibition reporter assay (HEK-Blue cells, SEAP reporter, ODN2006 stimulation)
Details: HEK-Blue cells overexpressing human TLR9, SEAP reporter, ODN2006 5 nM
pIC50: −log10 of the molar value.
ASSAY_ENDPOINT: pIC50

RECORD_SMILES | pIC50
CC(C)c1c(-c2cc(C(F)(F)F)c3nccn3c2)[nH]c2ccc(C3CCN(CC(=O)N(C)C)CC3)cc12 | 4.30 to 6.00

Look at this compound and give its reported pIC50. CCc1c(-c2ccnc3[nH]ncc23)[nH]c2ccc(C3CCN(Cc4c(C)noc4C)CC3)cc12
4.30 to 6.00

====

Biological target: human TLR7 (Homo sapiens, UniProt Q9NYK1)
Sequence (Q9NYK1 27-1049): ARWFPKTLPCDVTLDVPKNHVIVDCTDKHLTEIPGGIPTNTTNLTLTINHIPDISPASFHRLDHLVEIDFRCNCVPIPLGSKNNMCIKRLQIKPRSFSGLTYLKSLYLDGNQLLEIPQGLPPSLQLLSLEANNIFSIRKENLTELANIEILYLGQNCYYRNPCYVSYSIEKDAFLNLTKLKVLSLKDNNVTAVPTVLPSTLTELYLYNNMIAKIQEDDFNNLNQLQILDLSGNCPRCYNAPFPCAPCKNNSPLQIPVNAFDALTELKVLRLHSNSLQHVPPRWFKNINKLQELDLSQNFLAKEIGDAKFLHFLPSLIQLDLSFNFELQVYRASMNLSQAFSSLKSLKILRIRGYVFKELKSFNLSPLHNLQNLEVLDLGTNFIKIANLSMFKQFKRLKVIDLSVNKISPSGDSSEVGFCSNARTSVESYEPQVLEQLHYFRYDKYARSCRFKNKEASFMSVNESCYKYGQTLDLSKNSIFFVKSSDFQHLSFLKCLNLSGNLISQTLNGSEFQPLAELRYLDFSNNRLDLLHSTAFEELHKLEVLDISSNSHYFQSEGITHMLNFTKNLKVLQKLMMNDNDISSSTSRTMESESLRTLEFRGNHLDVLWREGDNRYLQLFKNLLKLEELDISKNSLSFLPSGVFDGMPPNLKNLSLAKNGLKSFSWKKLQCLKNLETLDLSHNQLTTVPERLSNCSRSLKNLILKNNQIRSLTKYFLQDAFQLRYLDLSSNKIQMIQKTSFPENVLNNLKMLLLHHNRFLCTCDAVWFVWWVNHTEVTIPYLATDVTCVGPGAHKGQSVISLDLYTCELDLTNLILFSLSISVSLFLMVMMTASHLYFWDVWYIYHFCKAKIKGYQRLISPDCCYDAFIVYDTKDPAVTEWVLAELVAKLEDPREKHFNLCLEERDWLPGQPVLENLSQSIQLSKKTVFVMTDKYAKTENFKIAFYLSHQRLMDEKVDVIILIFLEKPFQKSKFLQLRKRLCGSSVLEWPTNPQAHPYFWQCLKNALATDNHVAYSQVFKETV
Test: TLR7 inhibition reporter assay (HEK-Blue cells, SEAP reporter, gardiquimod stimulation)
Conditions: HEK-Blue cells overexpressing human TLR7, SEAP reporter, gardiquimod 7.5 μM
Source text: TLR7/8/9 Inhibition Reporter Assays HEK-Blue™-cells (Invivogen) overexpressing human TLR7, TLR8 or TLR9 receptors were used for screening inhibitors of these receptors using an inducible SEAP (secreted embryonic alkaline phosphatase) reporter gene under the control of the IFN-β minimal promoter fused to five NF-κB and AP-1-binding sites. […]
IC50: recorded values

Example entries begin here.
RECORD_SMILES | ASSAY_ENDPOINT | VALUE
CC(C)c1c(-c2ccc3cnnn3c2)[nH]c2ccc(C3CCN(C4COC4)CC3)cc12 | IC50 | 100 to 1000 nM
Cc1cn2cc(-c3[nH]c4ccc(C5CCN(CC(=O)N(C)C)CC5)cc4c3C(C)C)cc(C(F)(F)F)c2n1 | IC50 | < 100 nM

Look at this compound and give its reported IC50. CC(C)c1c(-c2ccc3nccn3c2)[nH]c2ccc(C3CCNCC3)cc12
< 100 nM

Then what about the compound CC(C)c1c(-c2c[nH]c3ncccc23)[nH]c2ccc(C3CCNCC3)cc12 ?
< 100 nM

Then what about the compound CCc1c(-c2ccnc3c(N)n[nH]c23)[nH]c2ccc(C3CCNCC3)cc12 ?
< 100 nM
